# Tested on: HT29 colon
# Assay Remarks: NCI-60 one-dose screen, 48 h
# Applied Conditions: 10 µM unless noted
The panel holds about 83,000 compounds, 20% with a hit somewhere; the sample as a whole holds those more often. Active and inactive are the calls of the source. The calls were made as follows: active = growth percent below 10; inactive = the rest.
Respond only with the outcome that fits, drawn from yes (1) = active, no (0) = inactive

Solved cases (6 shown):
O=C(S)CNC(=O)c1ccccc1 : no (0)
CCCCn1c(=O)c(-c2cc(-c3ccc(Cl)cc3)nc(-c3ccc(Cl)cc3)c2)cc2ccc(Cl)cc21 : no (0)
O=C1CN(CCN2CC(=O)N(Cc3ccccc3)C(=O)C2)CC(=O)N1Cc1ccccc1 : no (0)
c1ccc(-c2nc3nonc3nc2-c2ccccc2)cc1 : no (0)
CN1C(=O)CNC(=O)[C@H](NC(=O)c2nc3ccccc3cc2O)CSSC[C@H]1C(=O)NCCc1nc2ccccc2cc1O : no (0)
Nc1ccc(Sc2ccc([N+](=O)[O-])c3nonc23)cc1 : no (0)

-- ask So what was the verdict on NC1=C(c2nn[nH]n2)C(c2ccccc2Cl)c2ccc3ccccc3c2O1 (centres undefined) in this test?
-- reply no (0)

-- ask What would you report for COc1cc(C(=O)/C=C/c2ccc(OCCCCCC[P+](c3ccccc3)(c3ccccc3)c3ccccc3)cc2)cc(OC)c1OC ?
-- reply yes (1)

-- ask What would you report for COc1cc(C2CC(c3cccc(Br)c3)=NN2C(C)=O)cc(OC)c1OC (centres undefined) ?
-- reply no (0)

-- ask What would you report for COc1cc(C(=O)c2cnc(-c3c[nH]c4cccc(C)c34)[nH]2)cc(OC)c1OC ?
-- reply yes (1)

-- ask What would you report for Cc1cccc2c3c(sc12)C(c1ccc(Cl)cc1)C(C#N)=C(N)O3 (centres undefined) ?
-- reply yes (1)

-- ask What would you report for COc1cc(Nc2cn[nH]c2-c2ccc(Cl)cc2)cc(OC)c1OC ?
-- reply no (0)

-- ask What would you report for CC(=O)CC(c1cccs1)c1c(-c2ccccc2)[nH]c2ccccc12 (centres undefined) ?
-- reply no (0)

-- ask What would you report for O=[N+]([O-])c1ccccc1NCSc1ccc(Cl)cc1 ?
-- reply no (0)

-- ask What would you report for N/C(=N\c1nc2ccccc2s1)NC(=O)Nc1cccc2ccccc12 ?
-- reply yes (1)

-- ask What would you report for COc1cc2cc(Oc3ccc(NC(=O)Nc4ccc(Cl)c(Cl)c4)cc3)c(C)nc2cc1OCCN1CCOCC1 ?
-- reply no (0)

-- ask What would you report for COc1cc(OCc2cccc(-c3ccc(C(O)c4nccs4)cc3)c2C)cc(OC)c1CNCCNC(C)=O (centres undefined) ?
-- reply no (0)

-- ask What would you report for NCCNc1nc2ccccc2c2c(=O)c3cccc(F)c3sc12 ?
-- reply no (0)

* * *

Examples of compounds with documented growth follow.
# System: NCI-H322M lung
# Assay Remarks: NCI-60 one-dose screen, 48 h (100 = growth as untreated, 0 = no growth, -100 = all killed)
# Applied Conditions: 10 µM unless noted
This is part of a sample that, as a whole, favours compounds with a hit. Of some 83,000 tested, about 20% had one in any assay.
# unit: % | format: bare number

// worked examples, growth included
NC1=NC(c2cccc(Br)c2)c2sc3ccc(Cl)cc3c2N1 (configuration not stated) : 89.6
Cc1nc(/N=C(\N)NC(=O)Nc2cccc(Cl)c2)sc1C : 92
c1ccc2c(c1)Nc1ccncc1S2 : 114

-- ask What value of growth has been reported for the following compound? Cc1nn(-c2ccccc2)c2c1N=c1s/c(=C\c3ccc(C(F)(F)F)cc3)c(=O)n1CN2
-- reply 75.7

-- ask What would you report for O=C(/C=C/c1sc(Cl)nc1Cl)c1ccc(F)cc1 ?
-- reply 100

-- ask What would you report for O=C(O)CCC(=O)Nc1nnc(-c2ccccc2)s1 ?
-- reply 105

-- ask What would you report for COc1cc(C2CC(c3ccc(N(C)C)cc3)=NN2C(C)=O)cc(OC)c1OC (configuration not stated) ?
-- reply 44.2

-- ask What would you report for Cc1nn(-c2ccccc2)c(-n2ccnc2)c1/C=N/Nc1nc(-c2ccc(Cl)c(Cl)c2)cs1 ?
-- reply 76
